# METHOD SUMMARY: gradient 5% acetonitrile 3 min, to 50% in 2 min, to 85% in 15 min, held 3 min, 100 µL/min
# TEST SETTINGS: column: Zorbax Extend-C18 2.1 x 50 mm; eluents: water / acetonitrile, 0.1% formic acid
MEASURED ATTRIBUTE: RP-LC retention time (s)
Only the number, expressed in s, is required.

{"COMPOUND": "COC(=O)c1ccc2c(=O)n(-c3ccc(Cl)cc3)c(N3CCC(C(N)=O)CC3)nc2c1", "RP-LC retention time, s": 754}
{"COMPOUND": "CCc1ccccc1Nc1nc(-c2ccc(Cl)cc2)cs1", "RP-LC retention time, s": 1310}
{"COMPOUND": "CCCn1c(=O)c2cc(C(=O)NCc3ccccc3C)nn2c2ccccc21", "RP-LC retention time, s": 1010}
{"COMPOUND": "CCN1C(=O)C2CCC(=O)N2c2ccc(C(=O)NC3CCCC3)cc21 (centres undefined)", "RP-LC retention time, s": 692}
{"COMPOUND": "CCOc1ccc(NC(=O)CCC2CCN(c3cc(NC4CC4)ncn3)CC2)cc1", "RP-LC retention time, s": 710}
{"COMPOUND": "COc1ccc(C(CC(=O)N2CCCCCC2)N2Cc3ccccc3C2=O)cc1OC (centres undefined)", "RP-LC retention time, s": 785}
{"COMPOUND": "CCCS(=O)(=O)N1CCC2(CC1)CN(Cc1ccc(OC)cc1)C2=O", "RP-LC retention time, s": 787}
{"COMPOUND": "CCN(CC)S(=O)(=O)c1ccc2c(c1)CC(C(=O)N1CCCCC1)N2C(C)=O (centres undefined)", "RP-LC retention time, s": 804}
{"COMPOUND": "O=c1c2cc(-c3cccc4ccccc34)nn2ccn1Cc1nc(-c2ccccc2)no1", "RP-LC retention time, s": 1140}
{"COMPOUND": "CCOC(=O)c1c(C)[nH]c(C(=O)N2CCC(CC(=O)NCc3ccc(OC)cc3)CC2)c1C", "RP-LC retention time, s": 694}

Task: // returns reported RP-LC retention time for input CCc1nn2c(CNS(=O)(=O)c3ccccc3Cl)c(-c3ccccc3)nc2s1
Output: 1000

Task: // returns reported RP-LC retention time for input CCOc1ccc(NC(=O)CCSc2nnc(C)s2)cc1
Output: 709

Task: // returns reported RP-LC retention time for input Cc1ccc2c(Nc3cccc(C(F)(F)F)c3)c(C(=O)N3CCOCC3)cnc2n1
Output: 573

Task: // returns reported RP-LC retention time for input Cc1ccc(NC(=O)Cn2c(=O)n(-c3ccc(F)cc3)c(=O)c3c2cc(C)n3C)cc1
Output: 800

---

# METHOD SUMMARY: gradient 5% acetonitrile 3 min, to 50% in 2 min, to 85% in 15 min, held 3 min, 100 µL/min
# TEST SETTINGS: column: Zorbax Extend-C18 2.1 x 50 mm; eluents: water / acetonitrile, 0.1% formic acid
Form field: RP-LC retention time (one value per entry).
Only the number, expressed in s, is required.

{"COMPOUND": "CCc1nc(-c2csc(S(=O)(=O)N3CCCC(C(=O)Nc4c(C)cccc4C)C3)c2)no1 (configuration not stated)", "VALUE UNITS": "s", "RP-LC retention time": 1010}
{"COMPOUND": "CCc1ccc(NC(=O)Cn2c(=O)n(-c3cccc(C)c3)c(=O)c3c2cc(C)n3C)cc1", "VALUE UNITS": "s", "RP-LC retention time": 645}
{"COMPOUND": "O=C(Nc1ccccc1)c1cccc(N2CC(C(=O)NC3CCCCCC3)CC2=O)c1 (configuration not stated)", "VALUE UNITS": "s", "RP-LC retention time": 862}
{"COMPOUND": "Cc1nnc2ccc(N3CCC(C(=O)NCCCOC(C)C)CC3)nn12", "VALUE UNITS": "s", "RP-LC retention time": 643}

Task: // returns reported RP-LC retention time for input O=C(NCCCN1CCCC1=O)c1csc(N2CCN(c3ccc(Cl)cc3)CC2)n1
Output: 881

Task: // returns reported RP-LC retention time for input CC(C)(C)C(=O)Oc1ccc(S(=O)(=O)Nc2ccccc2C(=O)NCC(=O)O)cc1
Output: 961

Task: // returns reported RP-LC retention time for input O=C(NC1(c2nc(-c3cccnc3)no2)CCCCC1)c1nccc2ccccc12
Output: 1100

Task: // returns reported RP-LC retention time for input CC(O)Cn1cnc2c1c(=O)n(C)c(=O)n2C (configuration not stated)
Output: 1100

Task: // returns reported RP-LC retention time for input Cc1cccc(C(=O)N2CCC3(C2)C(=O)Nc2ccccc23)c1 (configuration not stated)
Output: 734

Task: // returns reported RP-LC retention time for input COc1ccc(CSc2nccc3c2ccn3CC(=O)NCc2ccco2)cc1
Output: 686

Task: // returns reported RP-LC retention time for input O=C(C1CCN(S(=O)(=O)N2CCOCC2)CC1)N1CCC(c2nc(C3CCOCC3)no2)C1 (configuration not stated)
Output: 656

Task: // returns reported RP-LC retention time for input Cc1cccc(N2C(=O)CN(Cc3ccco3)[C@H]3CS(=O)(=O)C[C@H]32)c1
Output: 744
